Test system: HOP-18
procedure.details: NCI tumour cell line growth inhibition, 48 h
The source made the active and inactive calls. Rule as the data show it: active = GI50 up to about 1.1 µM and inactive = higher.
endpoint.label: GI50

[[record]]
compound = "Nc1nc2c(ncn2C2OC(CO)C(O)C2O)c(=O)o1 (stereo unspecified)"
endpoint_label = "GI50"
result = "> 100 µM (inactive)"

[[record]]
compound = "NC1=NS(=O)(=O)Nc2nc(-c3ccc(Cl)cc3)c(-c3ccc(Cl)cc3)nc21"
endpoint_label = "GI50"
result = "> 100 µM (inactive)"


State recorded GI50 for all listed compounds.
1. O=C1c2ccccc2N2OC3(N4CCCC4)CCCC3C12c1ccccc1 (stereo unspecified)
2. CCCCCCCCCCCCCC(=O)OCC1OC(n2cc(F)c(=O)[nH]c2=O)C(NC(=O)OCc2ccccc2)C(OC(=O)CCCCCCCCCCCCC)C1O (stereo unspecified)
3. COc1ccc2c(c1)[n+]([O-])c(C(=O)C/C(=N/NC(=O)C[N+](C)(C)C)C(=O)Nc1cccc(C)c1C)c(C)[n+]2[O-]
4. C=C/C=C/NC(=O)OCc1ccccc1

**A:**
1. > 100 µM (inactive)
2. > 100 µM (inactive)
3. > 100 µM (inactive)
4. > 100 µM (inactive)

State recorded GI50 for all listed compounds.
1. COc1cccc2c1C(=O)c1c(O)c3c(c(O)c1C2=O)C[C@@](O)(C(=O)CO)C[C@@H]3OC1CC(N)CC(C)O1 (stereo partly specified)
2. CC(C(=O)C(C)O[Si](c1ccccc1)(c1ccccc1)C(C)(C)C)=P(c1ccccc1)(c1ccccc1)c1ccccc1 (stereo unspecified)
3. CCOC(=O)C1=C(Nc2ccccc2)OC/C1=N\NC(=O)Cc1ccccc1
4. CC1CC2=Nc3ccccc3NC(c3ccccc3)C2=C(O)O1 (stereo unspecified)
5. COCOCC[C@@H]1CC=CC(NC(=O)OCc2ccccc2)C1/C=C/C(=O)CCC1OCCO1 (stereo partly specified)
6. N=S(c1ccccc1[N+](=O)[O-])c1ccccc1[N+](=O)[O-]

**A:**
0.0348 µM (active)
3.05 µM (inactive)
> 50 µM (inactive)
> 100 µM (inactive)
34.3 µM (inactive)
5.3 µM (inactive)

---

Tested on: HOP-62
procedure.details: NCI tumour cell line growth inhibition, 48 h
Activity calls are given as the source filed them. Rule as the data show it: active = GI50 up to about 1.1 µM and inactive = higher.
Outcome (select one): y for active, n for inactive

[[record]]
compound = "COc1ccc(NC2Oc3cc4c(cc3C(c3cccc(OC)c3OC)C2C)OCO4)cc1 (stereo not drawn)"
subject_of_test = "HOP-62"
class_name = "n"


**Q:** Which outcome was assigned to "Cc1ccccc1N/C(N)=N/C#N" in this test?
**A:** n

**Q:** Which outcome was assigned to CC1CCCCc2nc3c(c(=O)n21)CCCC3 (stereo not drawn) in this test?
**A:** n

**Q:** Which outcome was assigned to COc1ccc2c(c1)C(=O)C1(C2)[C@H](c2ccccc2)C2C(=O)c3cc(OC)ccc3C2[C@H]1c1ccccc1 (stereo partly drawn) in this test?
**A:** n

**Q:** Which outcome was assigned to CCc1ccccc1NC(=O)C(=O)C(C(=O)c1ccc(OC)cc1)c1ccc(OC)cc1 (stereo not drawn) in this test?
**A:** n

**Q:** Which outcome was assigned to CC1CC[C@@]2(OC1)OC1C[C@H]3[C@@H]4CC[C@H]5CC(OC6OC(CO)C(OC7OC(CO)C(O)C(O)C7OC7OC(CO)C(O)C(O)C7O)C(O)C6O)CCC5(C)[C@H]4CCC3(C)C1[C@@H]2C (stereo partly drawn) in this test?
**A:** n

**Q:** Which outcome was assigned to "O=C1NC(=O)/C(=C/c2ccc(S(=O)(=O)N/N=C/c3ccccc3)cc2)N1" in this test?
**A:** n

**Q:** Which outcome was assigned to Cn1nc(C(=O)N2CC(CCl)c3c2cc(N)c2ccccc32)cc1NC(=O)Nc1cc(C(=O)N2CC(CCl)c3c2cc(N)c2ccccc32)nn1C (stereo not drawn) in this test?
**A:** y

---

Tested on: NCI-H460
procedure.details: NCI tumour cell line growth inhibition, 48 h
Activity calls are given as the source filed them. No stated cut-off is given here; in the data, active = GI50 up to about 1.1 µM and inactive = higher.
Outcome (select one): 1 (yes) = active, 0 (no) = inactive

[[record]]
molecule = "Cc1c(Cl)nc(Cl)nc1Cl"
class_name = "0 (no)"

[[record]]
molecule = "Cc1cc2ccccc2n1CC(=O)N1CCCC1"
class_name = "0 (no)"

[[record]]
molecule = "Cc1ccccc1N(C)S(=O)(=O)c1ccccc1[N+](=O)[O-]"
class_name = "0 (no)"

[[record]]
molecule = "O=C(Cc1csc2[n+]1C(=O)/C(=C/c1ccc(Cl)cc1)S2)Nc1ccccc1"
class_name = "0 (no)"

[[record]]
molecule = "CC(C)(C)C1=NO[C@H]2[C@@H](NC(=O)c3ccccc3)CC[C@@H]12"
class_name = "0 (no)"


**Q:** Which outcome was assigned to "Cc1cc(NC2=NCCO2)c2c(c1C)CCCC2" in this test?
**A:** 0 (no)

**Q:** Which outcome was assigned to "CCCCC1=CSC(c2ccccc2)=C(c2ccccc2)S1" in this test?
**A:** 0 (no)

**Q:** Which outcome was assigned to CC1C=CC(=O)C(n2cc(F)c(=O)[nH]c2=O)O1 (stereo not drawn) in this test?
**A:** 0 (no)

**Q:** Which outcome was assigned to "O=C1Nc2cccc(Cl)c2/C1=C\c1cccnc1" in this test?
**A:** 0 (no)

**Q:** Which outcome was assigned to "C(=N\c1ccc2c(c1)Cc1ccccc1-2)/c1ccccn1" in this test?
**A:** 0 (no)

---

Exercise: state measured GI50 for each of the compounds provided.
System: OVCAR-4
procedure.details: NCI tumour cell line growth inhibition, 48 h
Activity calls are given as the source filed them. Rule as the data show it: active = GI50 up to about 1.1 µM and inactive = higher.

In the examples that follow, each entry is paired with its recorded GI50.
[[record]]
compound = "O=C(Nc1ccc(Cl)c(C(F)(F)F)c1)C(=O)c1c(O)c2ccccc2oc1=O"
result = "> 100 µM (inactive)"

[[record]]
compound = "Cn1cc(C(=O)c2nccc3c2cnc2ccccc23)ccc1=O"
result = "> 100 µM (inactive)"

[[record]]
compound = "CCNC(=O)Cc1nc2c(O)ncnc2n1C1OC(CO)C(O)C1O (stereo unspecified)"
result = "> 100 µM (inactive)"

[[record]]
compound = "CC(=O)OC(C)(C)C[N+](=O)[O-]"
result = "20 µM (inactive)"

[[record]]
compound = "C=CCCCCCC(O)C(O)C/C=C\\C/C=C\\CC (stereo unspecified)"
result = "> 18.8 µM (inactive)"

[[record]]
compound = "O=C(CSCC(=O)N/N=C/c1cccs1)N/N=C/c1cccs1"
result = "45.2 µM (inactive)"

[[record]]
compound = "O=C1N=C(Nc2ccccc2Cl)N/C1=C\\c1ccc(Cl)cc1Cl"
result = "44.3 µM (inactive)"

[[record]]
compound = "O=C(CCCN1CCC2(CC1)/C(=N/C1CCCCC1)NC(=O)N2c1ccccc1)c1ccc(F)cc1"
result = "31.7 µM (inactive)"


State recorded GI50 for all listed compounds.
1. C=C/C=C/NC(=O)OCc1ccccc1
2. Cc1ccc(N2C(=O)/C(=C3\Sc4c(nc(C)[nH]c4=O)N3c3ccccc3)SC2=S)cc1

**A:**
1. > 100 µM (inactive)
2. 29.2 µM (inactive)

**Q:** // GI50 lookup, key: "C#CCCCC(=C)C[C@@H]1OC(=O)[C@H](C)[C@@H]1O"
**A:** > 100 µM (inactive)

---

Tested on: 786-0
procedure.details: NCI tumour cell line growth inhibition, 48 h
The source made the active and inactive calls. No stated cut-off is given here; in the data, active = GI50 up to about 1.1 µM and inactive = higher.
Outcome (select one): YES = active, NO = inactive

**Q:** Which outcome was assigned to "Cc1cc(O)nc2c3c(ccc12)OC(C)(C)C=C3" in this test?
**A:** NO

**Q:** Which outcome was assigned to "[O-][n+]1ccccc1S" in this test?
**A:** YES

**Q:** Which outcome was assigned to "CCC/C(Cl)=N/OC(=O)Nc1cccc(F)c1" in this test?
**A:** NO

**Q:** Which outcome was assigned to "Nc1ccc(C(=O)O)c2[nH]c3ccccc3c(=O)c12" in this test?
**A:** NO

**Q:** Which outcome was assigned to "CC(=O)O[C@H]1C[C@H](O[C@H]2[C@@H](O)C[C@H](O[C@H]3[C@@H](O)C[C@H](O[C@H]4CC[C@@]5(C)[C@H](CC[C@@H]6[C@@H]5CC[C@]5(C)[C@@H](C7=CC(=O)OC7)CC[C@]65O)C4)O[C@@H]3C)O[C@@H]2C)O[C@H](C)[C@H]1O[C@@H]1O[C@H](CO)[C@@H](O)[C@H](O)[C@H]1O" in this test?
**A:** YES

---

System: XF498
procedure.details: NCI tumour cell line growth inhibition, 48 h
Active and inactive are the calls of the source. Cut-off read from the data, not from the text of the source: active = GI50 up to about 1.1 µM and inactive = higher.
Outcome (select one): active, inactive

Below, 2 compounds whose answers are already recorded.
[[record]]
compound = "Cc1cc(Cl)ccc1/N=C1/NC(=O)C(CC(=O)Nc2cccc(C)c2C)S1 (configuration not stated)"
class_name = "inactive"

[[record]]
compound = "Cc1cc(C(C)(C)C)cc(Cc2cc(C(C)(C)C)cc(Cc3cc(C(C)(C)C)cc(C)c3O)c2O)c1O"
class_name = "inactive"


**Q:** Which outcome was assigned to "Cn1nc(-c2ccccc2)c(N=[N+]=[N-])cc1=O" in this test?
**A:** inactive

FYI, the data here is from ChEMBL document CHEMBL1201862.
